target of assay: HIV-1 JR-CSF Env K343A (HIV-1 isolate JR-CSF) (UniProt P20871)
experiment summary: cell-based or functional assay
Reported values of Fold IC50 increase relative to wild-type for individual entries
experimental endpoint: Fold IC50 increase relative to wild-type (fold)

binder="PGT-123 (antibody, V domains shown) VH: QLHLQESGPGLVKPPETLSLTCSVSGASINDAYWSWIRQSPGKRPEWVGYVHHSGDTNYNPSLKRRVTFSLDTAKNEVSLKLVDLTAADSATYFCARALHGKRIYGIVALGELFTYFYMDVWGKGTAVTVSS VL: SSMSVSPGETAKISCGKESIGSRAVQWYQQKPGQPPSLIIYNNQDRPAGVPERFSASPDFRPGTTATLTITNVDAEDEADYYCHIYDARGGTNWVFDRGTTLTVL" quantity_unit=fold observed_result=0.3
binder="PGT-130 (antibody, V domains shown) VH: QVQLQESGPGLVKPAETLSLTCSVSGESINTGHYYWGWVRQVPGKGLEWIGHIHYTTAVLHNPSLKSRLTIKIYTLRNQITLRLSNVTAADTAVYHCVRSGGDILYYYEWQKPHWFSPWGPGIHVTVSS VL: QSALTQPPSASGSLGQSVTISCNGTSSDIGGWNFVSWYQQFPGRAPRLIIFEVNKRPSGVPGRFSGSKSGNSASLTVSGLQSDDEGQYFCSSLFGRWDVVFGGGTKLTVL" quantity_unit=fold observed_result=1.1
binder="PGT-131 (antibody, V domains shown) VH: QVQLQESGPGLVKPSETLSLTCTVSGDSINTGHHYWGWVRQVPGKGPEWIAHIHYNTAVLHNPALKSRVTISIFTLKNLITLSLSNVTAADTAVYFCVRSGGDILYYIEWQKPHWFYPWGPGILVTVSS VL: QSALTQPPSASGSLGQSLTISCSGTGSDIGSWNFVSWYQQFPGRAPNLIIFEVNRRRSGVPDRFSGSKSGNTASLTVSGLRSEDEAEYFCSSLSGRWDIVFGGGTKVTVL" quantity_unit=fold observed_result=1.1
